Origin of the recorded values: paper PMC7071059

# Test system: K-562
# protocol: NCI 60 one dose (10 μM) anticancer assay
# Format: cell-based
# condition_info: Homo sapiens, K562; 10 µM one dose; Leukemia; read-out: Growth Inhibition % K-562
parameter_measured: inhibition at 10 µM (%)
Numbers only here, please. The scale is %.

Below, 5 compounds whose answers are already recorded.
{"columns": ["compound", "inhibition at 10 µM [%]"],
 "data": [
  ["Cc1ccc(-c2nc3ccccc3n2CC(=O)N/N=C/c2ccc(OCc3ccccc3)cc2)o1 [Compound 17d]", 41],
  ["CC(C)c1nc2ccccc2n1CC(=O)N/N=C/c1cccc(OCc2ccccc2)c1 [Compound 17a]", 57],
  ["COc1cc(/C=N/NC(=O)Cn2c(C(C)C)nc3ccccc32)ccc1OCc1ccccc1 [Compound 17e]", 25],
  ["CC(C)c1nc2ccccc2n1CC(=O)N/N=C/c1ccc(OCc2ccccc2)cc1 [Compound 17c]", 28],
  ["Cc1ccc(-c2nc3ccccc3n2CC(=O)N/N=C/c2cccc(OCc3ccccc3)c2)o1 [Compound 17b]", 54]
]}

Next up:
Request: Query inhibition at 10 µM for COc1cc(/C=N/NC(=O)Cn2c(-c3ccc(C)o3)nc3ccccc32)ccc1OCc1ccccc1 [Compound 17f]
Response: 34

###

# System: NCI-H226
# protocol: NCI 60 one dose (10 μM) anticancer assay
# Type: cell-based
# condition_info: Homo sapiens, 10 µM one dose, Non-small cell lung Cancer, read-out: Growth Inhibition % NCI-H226
parameter_measured: inhibition at 10 µM (%)
Unit % implied. Number only.

{"columns": ["compound", "parameter_measured", "recorded_measurement"],
 "data": [
  ["COc1cc(/C=N/NC(=O)Cn2c(-c3ccc(C)o3)nc3ccccc32)ccc1OCc1ccccc1 [Compound 17f]", "inhibition at 10 µM", 16],
  ["CC(C)c1nc2ccccc2n1CC(=O)N/N=C/c1cccc(OCc2ccccc2)c1 [Compound 17a]", "inhibition at 10 µM", 29],
  ["Cc1ccc(-c2nc3ccccc3n2CC(=O)N/N=C/c2cccc(OCc3ccccc3)c2)o1 [Compound 17b]", "inhibition at 10 µM", 25]
]}

Request: Find the measured inhibition at 10 µM of C/C(=N\NC(=O)Cn1c(C(C)C)nc2ccccc21)c1ccccc1 [Compound 14a] with NCI-H226 as test system.
Response: 22

###

The entries below are paired with their reported inhibition at 10 µM.
# Tested on: HL-60(TB)
# protocol: NCI 60 one dose (10 μM) anticancer assay
# Assay type: cell-based
# condition_info: Homo sapiens, 10 µM one dose, Leukemia, read-out: Growth Inhibition % HL-60(TB)
State the answer as a number, implicitly in %.

Request: Enter inhibition at 10 µM (test system HL-60(TB)) for Cc1ccc(-c2nc3ccccc3n2CC(=O)N/N=C/c2ccc(OCc3ccccc3)cc2)o1 [Compound 17d]
Response: 19

Request: Recall the reported inhibition at 10 µM of CC(C)c1nc2ccccc2n1CC(=O)N/N=C/c1cccc(OCc2ccccc2)c1 [Compound 17a] when tested on HL-60(TB).
Response: 32

###

# Test system: M14
# protocol: NCI 60 one dose (10 μM) anticancer assay
# Format: cell-based
# condition_info: Homo sapiens, 10 µM one dose, Melanoma, read-out: Growth Inhibition % M14
parameter_measured: inhibition at 10 µM

{"columns": ["molecule", "parameter_measured", "recorded_measurement"],
 "data": [
  ["COc1cc(/C=N/NC(=O)Cn2c(-c3ccc(C)o3)nc3ccccc32)ccc1OCc1ccccc1 [Compound 17f]", "inhibition at 10 µM", "< 10%"],
  ["Cc1ccc(-c2nc3ccccc3n2CC(=O)N/N=C/c2cccc(OCc3ccccc3)c2)o1 [Compound 17b]", "inhibition at 10 µM", "24%"],
  ["Cc1ccc(-c2nc3ccccc3n2CC(=O)N/N=C/c2ccc(OCc3ccccc3)cc2)o1 [Compound 17d]", "inhibition at 10 µM", "< 10%"],
  ["CC(C)c1nc2ccccc2n1CC(=O)N/N=C/c1ccc(OCc2ccccc2)cc1 [Compound 17c]", "inhibition at 10 µM", "< 10%"],
  ["CC(C)c1nc2ccccc2n1CC(=O)N/N=C/c1cccc(OCc2ccccc2)c1 [Compound 17a]", "inhibition at 10 µM", "16%"]
]}

Request: Answer with the recorded inhibition at 10 µM of COc1cc(/C=N/NC(=O)Cn2c(C(C)C)nc3ccccc32)ccc1OCc1ccccc1 [Compound 17e] only.
Response: < 10%

Request: Supply reported inhibition at 10 µM belonging to this molecule: C/C(=N\NC(=O)Cn1c(C(C)C)nc2ccccc21)c1ccccc1 [Compound 14a]
Response: < 10%

###

This section presents compounds with their documented inhibition at 10 µM values.
# System: NCI-H522
# protocol: NCI 60 one dose (10 μM) anticancer assay
# Format: cell-based
# condition_info: Homo sapiens, 10 µM one dose, Non-small cell lung Cancer, read-out: Growth Inhibition % NCI-H522
// return numeric value only (unit: %, not printed)

Request: Give NCI-H522 inhibition at 10 µM for the following compound: COc1cc(/C=N/NC(=O)Cn2c(-c3ccc(C)o3)nc3ccccc32)ccc1OCc1ccccc1 [Compound 17f]
Response: 26

Request: Give inhibition at 10 µM; test system NCI-H522; compound CC(C)c1nc2ccccc2n1CC(=O)N/N=C/c1ccc(OCc2ccccc2)cc1 [Compound 17c]
Response: 26

Request: Report inhibition at 10 µM on NCI-H522 for this entry: COc1cc(/C=N/NC(=O)Cn2c(C(C)C)nc3ccccc32)ccc1OCc1ccccc1 [Compound 17e]
Response: 32

###

# System: HL-60(TB)
# protocol: NCI 60 one dose (10 μM) anticancer assay
# Format: cell-based
# condition_info: Homo sapiens, 10 µM one dose, Leukemia, read-out: Growth Inhibition % HL-60(TB)
parameter_measured: inhibition at 10 µM

These solved cases illustrate the format of a correct answer.
{"columns": ["molecule", "inhibition at 10 µM"],
 "data": [
  ["Cc1ccc(-c2nc3ccccc3n2CC(=O)N/N=C/c2cccc(OCc3ccccc3)c2)o1 [Compound 17b]", "50%"],
  ["C/C(=N\\NC(=O)Cn1c(C(C)C)nc2ccccc21)c1ccccc1 [Compound 14a]", "< 10%"]
]}

Query molecule follows.
Request: Write inhibition at 10 µM of CC(C)c1nc2ccccc2n1CC(=O)N/N=C/c1ccc(OCc2ccccc2)cc1 [Compound 17c] ; system used: HL-60(TB)
Response: < 10%

###

The reader will find reported inhibition at 10 µM values listed item by item below.
# System: OVCAR-5
# protocol: NCI 60 one dose (10 μM) anticancer assay
# Type: cell-based
# condition_info: Homo sapiens, 10 µM one dose, Ovarian Cancer, read-out: Growth Inhibition % OVCAR-5

Example entries begin here.
{"columns": ["compound", "inhibition at 10 µM"],
 "data": [
  ["CC(C)c1nc2ccccc2n1CC(=O)N/N=C/c1ccc(OCc2ccccc2)cc1 [Compound 17c]", "< 10%"],
  ["C/C(=N\\NC(=O)Cn1c(C(C)C)nc2ccccc21)c1ccccc1 [Compound 14a]", "21%"],
  ["Cc1ccc(-c2nc3ccccc3n2CC(=O)N/N=C/c2ccc(OCc3ccccc3)cc2)o1 [Compound 17d]", "< 10%"]
]}

Request: Please indicate inhibition at 10 µM recorded for COc1cc(/C=N/NC(=O)Cn2c(C(C)C)nc3ccccc32)ccc1OCc1ccccc1 [Compound 17e]
Response: < 10%

###

parameter_measured: melting point

In the examples that follow, each entry is paired with its recorded melting point.
{"columns": ["compound", "melting point"],
 "data": [
  ["C/C(=N\\NC(=O)Cn1c(C(C)C)nc2ccccc21)c1ccc(Br)cc1 [Compound 14c]", "215 to 217 °C"],
  ["CC(C)c1nc2ccccc2n1CC(=O)N/N=C/c1ccc(O)cc1 [Compound 13c]", "296 to 298 °C"],
  ["COC(=O)Cn1c(C(C)C)nc2ccccc21", "93 to 95 °C"],
  ["COc1ccc(OC)c(/C=N/NC(=O)Cn2c(C(C)C)nc3ccccc32)c1 [Compound 13f]", "202 to 204 °C"],
  ["CC(C)c1nc2ccccc2n1CC(=O)N/N=C/c1ccc(N(C)C)cc1 [Compound 13e]", "225 to 227 °C"]
]}

Request: Answer with the recorded melting point of COc1cc(/C=N/NC(=O)Cn2c(C(C)C)nc3ccccc32)ccc1OCc1ccccc1 [Compound 17e] only.
Response: 180 to 182 °C

Request: // fetch melting point given entry COc1ccc(NC(=S)NNC(=O)Cn2c(C(C)C)nc3ccccc32)cc1 [Compound 24b]
Response: 232 to 234 °C

Request: For the compound CC(C)c1nc2ccccc2n1CC(=O)O , give its reported melting point.
Response: 238 to 240 °C

###

Reported values of inhibition at 10 µM for individual entries
# Test system: SR
# protocol: NCI 60 one dose (10 μM) anticancer assay
# Format: cell-based
# condition_info: Homo sapiens, 10 µM one dose, Leukemia, read-out: Growth Inhibition % SR
# Procedure: Some of the synthesized compounds were selected by the NCI, Bethesda, MD, USA for evaluation of their anticancer activity. An in vitro one dose (10 μM) anticancer assay was conducted on a full NCI 60-cell line panel derived from 9 different cancer types. Table 2 presents the percent of growth inhibition of some cell lines. […]
Numbers only; they are read as %.

Sample records with inhibition at 10 µM:
{"columns": ["compound", "result_unit", "inhibition at 10 µM"],
 "data": [
  ["COc1cc(/C=N/NC(=O)Cn2c(-c3ccc(C)o3)nc3ccccc32)ccc1OCc1ccccc1 [Compound 17f]", "%", 25],
  ["CC(C)c1nc2ccccc2n1CC(=O)N/N=C/c1cccc(OCc2ccccc2)c1 [Compound 17a]", "%", 64],
  ["Cc1ccc(-c2nc3ccccc3n2CC(=O)N/N=C/c2cccc(OCc3ccccc3)c2)o1 [Compound 17b]", "%", 25]
]}

Pending compound:
Request: Give inhibition at 10 µM; test system SR; compound Cc1ccc(-c2nc3ccccc3n2CC(=O)N/N=C/c2ccc(OCc3ccccc3)cc2)o1 [Compound 17d]
Response: 16
